Biological target: T1, Human TROP2 ECD (31-274 AA), biotinylated (human, UniProt P09758 31-274, biotinylated (site not stated))
T1 construct: also called tumor-associated calcium signal transducer 2; Human TROP2-biotin
T1 sequence: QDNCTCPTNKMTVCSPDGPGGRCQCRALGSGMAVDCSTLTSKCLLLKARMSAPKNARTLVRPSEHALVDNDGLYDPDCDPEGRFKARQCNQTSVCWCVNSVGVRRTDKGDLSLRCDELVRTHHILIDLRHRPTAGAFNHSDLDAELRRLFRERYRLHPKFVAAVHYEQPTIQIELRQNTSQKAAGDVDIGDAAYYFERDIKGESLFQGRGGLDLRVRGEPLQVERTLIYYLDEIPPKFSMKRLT
Assay: ELISA: biotinylated TROP2 captured on neutravidin plate, Fab titrated, HRP secondary antibody
pEC50: −log10 of the molar value.
pEC50 values for the binders below.

{"Binder": "TBD-10 (anti-TROP2 Fab, LC T97A) (Fab, V domains shown) VH: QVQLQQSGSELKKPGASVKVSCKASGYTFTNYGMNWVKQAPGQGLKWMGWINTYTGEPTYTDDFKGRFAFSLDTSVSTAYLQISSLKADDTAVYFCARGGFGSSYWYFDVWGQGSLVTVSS VL: DIQLTQSPSSLSASVGDRVSITCKASQDVSIAVAWYQQKPGKAPKLLIYSASYRYTGVPDRFSGSGSGTDFTLTISSLQPEDFAVYYCQQHYITPLAFGAGTKVEIKR", "pEC50": 9.54}
{"Binder": "TBD-2 (anti-TROP2 Fab, LC Q89A) (Fab, V domains shown) VH: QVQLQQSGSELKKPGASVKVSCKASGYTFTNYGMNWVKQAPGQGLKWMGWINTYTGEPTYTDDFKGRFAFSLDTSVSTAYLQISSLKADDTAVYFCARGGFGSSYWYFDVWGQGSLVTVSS VL: DIQLTQSPSSLSASVGDRVSITCKASQDVSIAVAWYQQKPGKAPKLLIYSASYRYTGVPDRFSGSGSGTDFTLTISSLQPEDFAVYYCAQHYITPLTFGAGTKVEIKR", "pEC50": 8.33}
